Assayed target: T1, human Claudin 18.2 (CLDN18.2) (human, UniProt P56856-2 1-261)
T1 construct: whole, on cells; recombinantly expressed on CHO, HEK293, NCI-N87, NUGC4 or PANC-1 cells; also called CHO-CLDN18.2
Assay method text: FACS on CHO-CLDN18.2 cells
The entries below are paired with their reported EC50.
Express your answer in nM, writing the number without its unit.

Past entries and their recorded results:
Binder	Unit of measure	EC50
364D1A7-H3L3 (antibody, V domains shown, humanized IgG; constant regions not specified) VH: EVQLVESGGGLVQPGGSLRLSCAASGFTFSSFGMHWVRQAPGKGLEWVAYISSGSGSIYYADTVKGRFTLSRDNPKNSLYLQMNSLRAEDTAVYYCATSYYYGNALEYWGQGTTVTVSS VL: DVVLTQSPDSLAVSLGERATINCKSSQSLFNVGNQKNYLTWYQQKPGQTPKLLIYWASTRKSGVPDRFSGSGSGTDFTLTISSLQAEDVAVYYCQNVYSYPLTFGGGTKVEIK	nM	3.54
364D1A7-H3L5 (antibody, V domains shown, humanized IgG; constant regions not specified) VH: EVQLVESGGGLVQPGGSLRLSCAASGFTFSSFGMHWVRQAPGKGLEWVAYISSGSGSIYYADTVKGRFTLSRDNPKNSLYLQMNSLRAEDTAVYYCATSYYYGNALEYWGQGTTVTVSS VL: DVVLTQSPDSLAVSLGERATISCKSSQSLFNVGNQKNYLTWYQQKPGQTPTLLIYWASTRKSGVPDRFTGSGSGTDFTLTISSLQAEDVAVYYCQNVYSYPLTFGAGTKVEIK	nM	4.53

Alright, here's another binder for you.
Query: Write down EC50 measured for item reference antibody 175D10 (xi175D10) (antibody, human IgG1, kappa, V domains shown, Fc variant D356/L358; also called chimeric 175D10) VH: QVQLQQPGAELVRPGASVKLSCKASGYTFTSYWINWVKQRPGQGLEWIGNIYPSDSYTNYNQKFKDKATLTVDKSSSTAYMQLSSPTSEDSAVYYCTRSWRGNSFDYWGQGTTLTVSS VL: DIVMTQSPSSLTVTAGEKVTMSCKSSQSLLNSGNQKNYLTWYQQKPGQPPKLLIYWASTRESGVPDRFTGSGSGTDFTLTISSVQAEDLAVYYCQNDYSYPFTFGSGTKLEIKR
Result: 7.24
